assay: stimulators of nuclear beta-catenin in C2C12, primary screen, imaging, WNT3A-conditioned medium, mouse C2C12, NPC library (AID 1117326); settings: at 10 µM, hits give high values; note: reference of the scale not given here
# maps each entry to its nuclear beta-catenin stimulation
Measure name: nuclear beta-catenin stimulation (%)

{"Compound": "CC(C)(C)C(=O)OCOC(=O)C1N2C(=O)CC2S(=O)(=O)C1(C)C (centres undefined)", "Units": "%", "Measurement": -1.1}
{"Compound": "CCOCCOC(=O)/C=C/c1ccc(OC)cc1", "Units": "%", "Measurement": 1.4}
{"Compound": "CC1(C)S[C@@H]2[C@H](NC(=O)C(c3ccccc3)S(=O)(=O)O)C(=O)N2[C@H]1C(=O)O (some centres undefined)", "Units": "%", "Measurement": 1.3}
{"Compound": "CCOC(=O)N1CCC(=C2c3ccc(Cl)cc3CCc3cccnc32)CC1", "Units": "%", "Measurement": 1.8}
{"Compound": "CC(=O)SCC(CC(=O)c1ccc(C)cc1)C(=O)O (centres undefined)", "Units": "%", "Measurement": 0.5}
{"Compound": "Cc1[nH]cnc1C[C@H]1CCc2c(C)c3ccccc3n2C1=O", "Units": "%", "Measurement": 9.2}
{"Compound": "COc1ccccc1N1CCN(CCCNc2cc(=O)n(C)c(=O)n2C)CC1", "Units": "%", "Measurement": 4.3}
{"Compound": "NC(N)=NC(=O)c1nc(Cl)c(N)nc1N", "Units": "%", "Measurement": 0.7}
{"Compound": "CSCC[C@H](N)C(=O)O", "Units": "%", "Measurement": 1.9}
